- Tested on: T1, GLP-1 receptor present in the plasma membranes isolated from RINm5F cells (UniProt P32301 22-463, limits assumed)
- T1 construct: whole, on cells
- T1 sequence (looked up): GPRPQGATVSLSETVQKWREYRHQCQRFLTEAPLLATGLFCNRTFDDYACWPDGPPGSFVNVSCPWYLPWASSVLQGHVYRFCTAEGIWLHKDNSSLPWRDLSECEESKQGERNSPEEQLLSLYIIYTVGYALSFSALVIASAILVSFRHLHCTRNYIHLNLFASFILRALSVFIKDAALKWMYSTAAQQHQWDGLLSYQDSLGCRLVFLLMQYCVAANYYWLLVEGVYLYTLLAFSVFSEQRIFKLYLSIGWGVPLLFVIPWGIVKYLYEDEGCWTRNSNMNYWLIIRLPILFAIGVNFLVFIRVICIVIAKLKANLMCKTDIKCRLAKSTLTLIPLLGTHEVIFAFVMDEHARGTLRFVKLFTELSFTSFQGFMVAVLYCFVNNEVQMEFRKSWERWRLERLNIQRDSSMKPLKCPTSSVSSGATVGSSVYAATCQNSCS
- Protocol summary: 125I-GLP-1 displacement, RINm5F plasma membranes
Ends that are not written are not given here. * marks the point of attachment. Palmitoyl = CCCCCCCCCCCCCCCC(=O)*
Property label: IC50 (nM)

>  <Binder>
HSQGTFTSDYAKYLDAAKAKEFIAWLVKGRG [G60]

>  <IC50 [nM]>
13.8

$$$$
>  <Binder>
HSQGTFTSDYAKYLDARRAKEFIAWLVKGR-NH2 [G27]

>  <IC50 [nM]>
2.2

$$$$
>  <Binder>
HSQGTFTSDYAKYLDARRAKEFIAWLVKGRC [G77]

>  <IC50 [nM]>
8.9

$$$$
>  <Binder>
HSQGTFTSDYAKYLDARRACEFIAWLVKGRG [G71]

>  <IC50 [nM]>
5.8

$$$$
>  <Binder>
HSQGTFTSDYAAYLDARRAKEFIAWLVKGR-NH2 [G56]

>  <IC50 [nM]>
6.6

$$$$

a: HSQGTFTSDYARYLDARRAREFIK(Palmitoyl)WLVRGRG [G90]
b: HSQGTFTSDYARYLDARRAKEFIAWLVRGRG [G82]
c: HSQGTFTSDYARYLDARRAREFIAWLVKGRG [G84]
Q) // ascending sort on recorded IC50 Could you list the labels in the order requested?
A) c, b, a
